Every entry's value here was drawn from patent US20040180902A1.

Please provide measured melting point for the entries that follow.

Please look at this compound and report its melting point: `C[C@H](NC(=O)c1c(CN2CCNCC2=O)c(-c2ccccc2)nc2ccc(F)cc12)C1CCCCC1` 240 to 242 °C

Please look at this compound and report its melting point: `C[C@H](NC(=O)c1c(CN2CCN(CCO)C(=O)C2)c(-c2ccccc2)nc2ccc(F)cc12)C1CCCCC1` 120 to 122 °C

Please look at this compound and report its melting point: `C[C@H](NC(=O)c1c(CN2CCN(CCO)CC2)c(-c2cccs2)nc2ccccc12)C1CCCCC1` 110 °C

Please look at this compound and report its melting point: `C[C@H](NC(=O)c1c(CN2CCN(CCCO)C(=O)C2)c(-c2ccccc2)nc2ccc(F)cc12)C1CCCCC1` 110 to 130 °C
